- Assay overview: Pharmacokinetics in rats after SC and IV administration
- Experimental conditions: rat, in vivo, sc, 1 mg/kg
Where a SMILES comes first, the peptide text is derived from it. [ ]: non-standard residue; d: D form. Arg(Me) = CNC(=N)NCCC[C@H](N)C(=O)O; Hyp = O=C(O)[C@@H]1C[C@@H](O)CN1; azaGly = NNC(=O)O
Outcome measure: Cmax (ng/mL)
Numbers only, in ng/mL.

Task: Return Cmax (reported value) for this compound: CNC(=N)NCCC[C@H](NC(=O)[C@H](CC(C)C)NC(=O)NNC(=O)[C@H](Cc1ccccc1)NC(=O)[C@@H](NC(=O)[C@H](CC(N)=O)NC(=O)[C@@H]1C[C@@H](O)CN1C(=O)[C@@H](Cc1ccc(O)cc1)NC(C)=O)[C@@H](C)O)C(=O)N[C@@H](Cc1c[nH]c2ccccc12)C(N)=O [Compound 1] (Ac-[dY][Hyp]NTF[azaGly]L[Arg(Me)]W-NH2)
Output: 381

----------
- Assay overview: Pharmacokinetics in monkeys after SC and IV administration
- Experimental conditions: monkey, in vivo; monkeys, SC 10 mg/kg; read-out: AUC(0-24)
Where a SMILES comes first, the peptide text is derived from it. [ ]: non-standard residue; d: D form. Arg(Me) = CNC(=N)NCCC[C@H](N)C(=O)O; Hyp = O=C(O)[C@@H]1C[C@@H](O)CN1; azaGly = NNC(=O)O
Outcome measure: AUC(0-t)
Give your result as the value with the unit written after it.

Task: Return AUC(0-t) (reported value) for this compound: CC(=O)O.CNC(=N)NCCC[C@H](NC(=O)[C@H](CC(C)C)NC(=O)NNC(=O)[C@H](Cc1ccccc1)NC(=O)[C@@H](NC(=O)[C@H](CC(N)=O)NC(=O)[C@@H]1C[C@@H](O)CN1C(=O)[C@@H](Cc1ccc(O)cc1)NC(C)=O)[C@@H](C)O)C(=O)N[C@@H](Cc1c[nH]c2ccccc12)C(N)=O [API-MA] (Ac-[dY][Hyp]NTF[azaGly]L[Arg(Me)]W-NH2)
Output: 31600 ng·h/mL

----------
- Assay overview: Single dose PK, phase 1, healthy European men
- Assay type: in vivo, human
- Experimental conditions: male, human, plasma, single SC 0.003 mg, geometric mean
Where a SMILES comes first, the peptide text is derived from it. [ ]: non-standard residue; d: D form. Arg(Me) = CNC(=N)NCCC[C@H](N)C(=O)O; Hyp = O=C(O)[C@@H]1C[C@@H](O)CN1; azaGly = NNC(=O)O
Outcome measure: AUC(0-inf) (ng·h/mL)
Answers are plain numbers, in ng·h/mL.

Task: Return AUC(0-inf) (reported value) for this compound: CC(=O)O.CNC(=N)NCCC[C@H](NC(=O)[C@H](CC(C)C)NC(=O)NNC(=O)[C@H](Cc1ccccc1)NC(=O)[C@@H](NC(=O)[C@H](CC(N)=O)NC(=O)[C@@H]1C[C@@H](O)CN1C(=O)[C@@H](Cc1ccc(O)cc1)NC(C)=O)[C@@H](C)O)C(=O)N[C@@H](Cc1c[nH]c2ccccc12)C(N)=O [API-MA] (Ac-[dY][Hyp]NTF[azaGly]L[Arg(Me)]W-NH2)
Output: 0.122

----------
- Assay overview: Multiple-dose PK, 2-hour SC infusion once daily for 14 days, Japanese prostate cancer patients
- Format: in vivo, human
- Experimental conditions: male, human, in vivo, sc, 1 mg/day, Japanese prostate cancer patients, 2-hour SC infusion 1.0 mg/day, Day 14, mean; read-out: T1/2 (converted)
Where a SMILES comes first, the peptide text is derived from it. [ ]: non-standard residue; d: D form. Arg(Me) = CNC(=N)NCCC[C@H](N)C(=O)O; Hyp = O=C(O)[C@@H]1C[C@@H](O)CN1; azaGly = NNC(=O)O
Outcome measure: half-life (h)
Numbers only, in h.

Task: Return half-life (reported value) for this compound: CC(=O)O.CNC(=N)NCCC[C@H](NC(=O)[C@H](CC(C)C)NC(=O)NNC(=O)[C@H](Cc1ccccc1)NC(=O)[C@@H](NC(=O)[C@H](CC(N)=O)NC(=O)[C@@H]1C[C@@H](O)CN1C(=O)[C@@H](Cc1ccc(O)cc1)NC(C)=O)[C@@H](C)O)C(=O)N[C@@H](Cc1c[nH]c2ccccc12)C(N)=O [API-MA] (Ac-[dY][Hyp]NTF[azaGly]L[Arg(Me)]W-NH2)
Output: 3.38

// data source = patent US11013780B2
